Where these numbers come from: patent US20210040185A1

Target system: HIV-1 envelope (Env) of virus WITO4160.33 (HIV-1)
Run description: cell-based or functional assay
Endpoint name: IC50 of viral neutralization (Env.IMC.LucR virus, TZM-BL reporter cells) (µg/mL)
Respond with the bare value in µg/mL.

Challenge: Using the record for L2A1_H60SA (antibody, V domains shown) VH: HVQLVQSGGGVKKIGAAVRISCEVTGYKFMDQLINWVRQAPGQGLEWMGWMNPTYGQVNYAWRFEGRVTMTRDMDTETAFMELRGLRVDDTAVYYCARGPSGENYPFHYWGQGVRVVVSS VL: ASALTQPASMSASPGQSVTISCSGTRHIISAWFQQYPGKPPKLIIFDDDKRPSGVPSRFSASRPGDTASLTISNVQPEDEATYICNTYEFFGGGTRLTVL , report its IC50 of viral neutralization (Env.IMC.LucR virus, TZM-BL reporter cells).
Response given: 0.148

Challenge: Using the record for L2A1_H58NQ (antibody, V domains shown) VH: HVQLVQSGGGVKKIGAAVRISCEVTGYKFMDQLINWVRQAPGQGLEWMGWMNPTYGQVQYSWRFEGRVTMTRDMDTETAFMELRGLRVDDTAVYYCARGPSGENYPFHYWGQGVRVVVSS VL: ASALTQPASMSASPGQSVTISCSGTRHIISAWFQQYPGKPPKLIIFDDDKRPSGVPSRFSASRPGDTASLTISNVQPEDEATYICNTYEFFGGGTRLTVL , report its IC50 of viral neutralization (Env.IMC.LucR virus, TZM-BL reporter cells).
Response given: 0.222

Challenge: Using the record for L2A1_H58NS (antibody, V domains shown) VH: HVQLVQSGGGVKKIGAAVRISCEVTGYKFMDQLINWVRQAPGQGLEWMGWMNPTYGQVSYSWRFEGRVTMTRDMDTETAFMELRGLRVDDTAVYYCARGPSGENYPFHYWGQGVRVVVSS VL: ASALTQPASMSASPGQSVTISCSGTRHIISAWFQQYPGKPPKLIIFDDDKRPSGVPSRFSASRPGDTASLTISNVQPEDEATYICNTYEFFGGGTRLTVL , report its IC50 of viral neutralization (Env.IMC.LucR virus, TZM-BL reporter cells).
Response given: 0.182

Challenge: Using the record for L2A1_H58NA (antibody, V domains shown) VH: HVQLVQSGGGVKKIGAAVRISCEVTGYKFMDQLINWVRQAPGQGLEWMGWMNPTYGQVAYSWRFEGRVTMTRDMDTETAFMELRGLRVDDTAVYYCARGPSGENYPFHYWGQGVRVVVSS VL: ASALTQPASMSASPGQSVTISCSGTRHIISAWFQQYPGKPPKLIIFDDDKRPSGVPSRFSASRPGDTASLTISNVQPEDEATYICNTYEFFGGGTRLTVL , report its IC50 of viral neutralization (Env.IMC.LucR virus, TZM-BL reporter cells).
Response given: 0.259

Challenge: Using the record for L2A1_H58ND (antibody, V domains shown) VH: HVQLVQSGGGVKKIGAAVRISCEVTGYKFMDQLINWVRQAPGQGLEWMGWMNPTYGQVDYSWRFEGRVTMTRDMDTETAFMELRGLRVDDTAVYYCARGPSGENYPFHYWGQGVRVVVSS VL: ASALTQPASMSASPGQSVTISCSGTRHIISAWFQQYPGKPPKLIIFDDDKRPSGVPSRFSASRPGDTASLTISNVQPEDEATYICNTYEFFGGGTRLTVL , report its IC50 of viral neutralization (Env.IMC.LucR virus, TZM-BL reporter cells).
Response given: 0.65

Challenge: Using the record for NVS49-L2A1 (antibody, V domains shown) VH: HVQLVQSGGGVKKIGAAVRISCEVTGYKFMDQLINWVRQAPGQGLEWMGWMNPTYGQVNYSWRFEGRVTMTRDMDTETAFMELRGLRVDDTAVYYCARGPSGENYPFHYWGQGVRVVVSS VL: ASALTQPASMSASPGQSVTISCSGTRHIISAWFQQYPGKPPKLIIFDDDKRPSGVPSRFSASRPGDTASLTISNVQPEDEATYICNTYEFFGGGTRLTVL , report its IC50 of viral neutralization (Env.IMC.LucR virus, TZM-BL reporter cells).
Response given: 0.213

Challenge: Using the record for L2A1_H60SN (antibody, V domains shown) VH: HVQLVQSGGGVKKIGAAVRISCEVTGYKFMDQLINWVRQAPGQGLEWMGWMNPTYGQVNYNWRFEGRVTMTRDMDTETAFMELRGLRVDDTAVYYCARGPSGENYPFHYWGQGVRVVVSS VL: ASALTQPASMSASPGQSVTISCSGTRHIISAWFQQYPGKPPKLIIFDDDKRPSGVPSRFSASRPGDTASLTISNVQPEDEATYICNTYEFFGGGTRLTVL , report its IC50 of viral neutralization (Env.IMC.LucR virus, TZM-BL reporter cells).
Response given: 0.212
